- ASSAYED_SYSTEM: Grb2 SH2 (UniProt P62993)
- Sequence (P62993 whole entry, looked up, the tested form may be a part): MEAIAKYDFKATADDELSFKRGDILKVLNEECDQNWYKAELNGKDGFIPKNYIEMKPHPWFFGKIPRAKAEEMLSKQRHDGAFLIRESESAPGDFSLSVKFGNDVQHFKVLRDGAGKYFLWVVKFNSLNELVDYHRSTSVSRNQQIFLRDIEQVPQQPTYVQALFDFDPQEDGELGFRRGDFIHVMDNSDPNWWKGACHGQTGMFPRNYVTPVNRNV
- EXPERIMENTAL_DETAILS: SH2 binding enrichment of the phosphorylated peptide, bacterial display (enrichment ratio); higher = better substrate or ligand; peptides without Tyr show the background;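 further: peptide library displayed on the E. coli surface as eCPX fusions, selected cells deep-sequenced, score is each peptide's frequency after selection divided by its frequency in the input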
If the reported SH2 binding enrichment equals or exceeds 0.9, assign yes (1). If not, assign no (0).

# check: SH2 binding enrichment of TFRPPYYHRDC [HGD_Y333_N337D] is greater than or equal to 0.9
yes (1)

# check: SH2 binding enrichment of DENWFYMRAAS [RPS19_Y54_T55M] is greater than or equal to 0.9
no (0)

# check: SH2 binding enrichment of TGEDWYVLVRV [SF3B3_Y904_G908R] is greater than or equal to 0.9
no (0)

# check: SH2 binding enrichment of GVKLTYGDAQN [SLC28A1_Y404] is greater than or equal to 0.9
yes (1)

# check: SH2 binding enrichment of RSRSSYTHGLN [MYCT1_Y116] is greater than or equal to 0.9
no (0)

# check: SH2 binding enrichment of IQVNAYFSPIH [ADSL_Y432_D430N] is greater than or equal to 0.9
yes (1)

# check: SH2 binding enrichment of PSVVAYPKRSQ [MARK3_Y432] is greater than or equal to 0.9
no (0)

# check: SH2 binding enrichment of LTNDRYLATLT [IL6ST_Y396] is greater than or equal to 0.9
yes (1)

# check: SH2 binding enrichment of QADVTYVNTQL [MERTK_Y872_I871T] is greater than or equal to 0.9
yes (1)

# check: SH2 binding enrichment of FEPWVYSFSYE [PRKDC_Y647] is greater than or equal to 0.9
no (0)

# check: SH2 binding enrichment of YMLYQYLKQIE [RPAP3_Y569_D564Y] is greater than or equal to 0.9
yes (1)

# check: SH2 binding enrichment of DGMADYSDPSF [CDC5L_Y459_YF] is greater than or equal to 0.9
no (0)
